Reported AUC values follow for various compounds
# EXPERIMENTAL_PROTOCOL: Plasma pharmacokinetics, AUC of free drug in CD-1 nude mice
# Format: in vivo, mouse
# TEST_CONDITIONS: CD-1 nude, mouse, plasma, ip, mouse plasma, free drug, at the MTD or 75% of the MTD; Table 2; read-out: AUC

| STRUCTURE_SMILES_STRING | AUC / µM·h |
| --- | --- |
| Cc1ccc2c(c1)[n+]([O-])c(NCCCN(C)CCCNC(=O)c1cccc3cc4ccccc4nc13)n[n+]2[O-] | 1.6 |
| Cc1ccc2c(c1)[n+]([O-])c(NCCCN1CCOCC1)n[n+]2[O-] | 195 |
| CCc1n[n+]([O-])c2ccc(OCCCN3CCOCC3)cc2[n+]1[O-] | 162 |
| CN(CCCNC(=O)c1cccc2ccc(-c3ccncc3)nc12)CCCNc1n[n+]([O-])c2ccccc2[n+]1[O-] | 1.2 |
